tested on: NG108-15 neuroblastoma x glioma cells (m3 AChR); assay: Inhibition of PGE1-stimulated cAMP levels in NG108-15 cells; assay type: cell-based; details: NG108-15, NG108-15 cells; relative to control with no compounds added; conc. of compounds = 100 μM; read-out: cAMP Inhib
Listed next: entries and their corresponding inhibition at 100 µM.
MEASURED_ENDPOINT: inhibition at 100 µM (%)

COMPOUND: CC(=O)NCCCC(=O)N(C)CC#CCN1CCCC1
MEASURED_ENDPOINT: inhibition at 100 µM
QUANTITY_UNIT: %
RECORDED_RESULT: 8

COMPOUND: CN(CC#CCN1CCCC1)C(=O)CCCN
MEASURED_ENDPOINT: inhibition at 100 µM
QUANTITY_UNIT: %
RECORDED_RESULT: 3.7

COMPOUND: CC(=O)N(C)CC#CCN1CCCC1 [UH 5, reference compound]
MEASURED_ENDPOINT: inhibition at 100 µM
QUANTITY_UNIT: %
RECORDED_RESULT: 63.2

COMPOUND: CN(CC#CCN1CCCC1)C(=O)CCCCCCN
MEASURED_ENDPOINT: inhibition at 100 µM
QUANTITY_UNIT: %
RECORDED_RESULT: 3

COMPOUND: CN(CC#CCN1CCCC1)C(=O)CCN
MEASURED_ENDPOINT: inhibition at 100 µM
QUANTITY_UNIT: %
RECORDED_RESULT: 20.8

COMPOUND: CN(CC#CCN1CCCC1)C(=O)CN
MEASURED_ENDPOINT: inhibition at 100 µM
QUANTITY_UNIT: %
RECORDED_RESULT: 26.1
